molecular target: TNFα / TNFα receptor (TNFα R1/Fc) (Homo sapiens); construct: purchased R&D Systems; assay: Inhibition of binding of TNFα to the TNFα receptor (plate ELISA competition); conditions: Table 2; read-out: Activity (IC50, inhibition of TNFα binding to TNFα R1/Fc)
Sequence (P01375 77-233 limits assumed, species assumed): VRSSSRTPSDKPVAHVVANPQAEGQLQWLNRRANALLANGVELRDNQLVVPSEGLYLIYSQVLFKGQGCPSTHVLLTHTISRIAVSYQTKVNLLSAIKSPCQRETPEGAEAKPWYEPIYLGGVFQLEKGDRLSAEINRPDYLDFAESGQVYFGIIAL
Endpoint: IC50

1) O=C(O)[C@@H]1Cc2ccc(cc2)NC(=O)[C@H](O)[C@@H](O)C(=O)N[C@H](Cc2cccs2)C(=O)N[C@@H](Cc2ccc(-c3ccccc3)cc2)C(=O)N[C@H](Cc2ccccc2Cl)C(=O)N1: 10 to 30 µM
2) O=C1COc2ccc(cc2)C[C@@H](C(=O)O)NC(=O)[C@@H](Cc2ccc(O)cc2)NC(=O)[C@H](Cc2ccc(-c3ccccc3)cc2)NC(=O)[C@@H](Cc2cccs2)N1: > 100 µM
3) O=C1COc2ccc(cc2)C[C@@H](C(=O)O)NC(=O)[C@H](Cc2ccccc2)NC(=O)[C@H](Cc2ccc(Cl)cc2Cl)NC(=O)[C@H](Cc2cccs2)N1: > 100 µM
4) O=C(O)[C@H](Cc1cccnc1)NC(=O)[C@@H]1Cc2ccc(cc2)NC(=O)[C@H](O)[C@@H](O)C(=O)N[C@H](Cc2cccs2)C(=O)N[C@@H](Cc2ccc(-c3ccccc3)cc2)C(=O)N[C@H](CCc2ccccc2)C(=O)N1: > 100 µM
5) CC(C)(C)Oc1ccc(C[C@@H]2NC(=O)[C@H](Cc3ccc(-c4ccccc4)cc3)NC(=O)[C@H](Cc3cccs3)NC(=O)COc3ccc(cc3)C[C@@H](C(=O)O)NC2=O)cc1: 30 to 100 µM

Please look at the following compound next.
IC50 of O=C1COc2ccc(cc2)C[C@@H](C(=O)O)NC(=O)[C@@H](Cc2ccccc2)NC(=O)[C@@H](Cc2ccc(-c3ccccc3)cc2)NC(=O)[C@@H](Cc2cccs2)N1 , assay on TNFα / TNFα receptor (TNFα R1/Fc) (Homo sapiens), is > 100 µM
